# System: ATP;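 note: ATP exposure 15 min at 22 °C before imaging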
# Protocol: switch fluorescence ratio, 500 uM ATP over buffer (Cy3 cluster intensity, sum of 5 cycles each) (fold (ratio)); higher = stronger signal-on switching upon ATP binding; sequences stand for … in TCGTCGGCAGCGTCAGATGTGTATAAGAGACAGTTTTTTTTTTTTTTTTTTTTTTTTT…TC
# Setup conditions: aptamer strand: ATP DNA aptamer (quencher-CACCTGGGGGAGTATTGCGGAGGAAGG + anchor), 100 nM annealed; ATP concentration: 500 uM
Metric: switch fluorescence ratio

Biopolymer sequence	switch fluorescence ratio
TTGATTGATT	0.992
CACTGGAAAA	1.04
TTATGTGACT	1.01
AACGTAAATA	1.11
TGTGAGGGGG	1.01
GAAAGTAGGA	1.02

*Q* Return reported switch fluorescence ratio; argument: CCACTGATCG
*A* 1.02

====

Overview of reported switch fluorescence ratio across a group of sequences:
# Test system: ATP;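 note: ATP exposure 15 min at 22 °C before imaging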
# Protocol: switch fluorescence ratio, 500 uM ATP over buffer (Cy3 cluster intensity, sum of 5 cycles each) (fold (ratio)); higher = stronger signal-on switching upon ATP binding; sequences stand for … in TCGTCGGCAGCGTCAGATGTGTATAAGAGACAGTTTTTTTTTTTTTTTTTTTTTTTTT…TC
# Setup conditions: aptamer strand: ATP DNA aptamer (quencher-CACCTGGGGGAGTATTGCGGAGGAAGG + anchor), 100 nM annealed; ATP concentration: 500 uM

Before answering, review these 3 worked examples.
Biopolymer sequence	Observed result
TATTCATGGT	1.03
TCGAACTGCT	1.02
ATATCGAGTT	0.989

*Q* Return reported switch fluorescence ratio; argument: GCGCTGGGCA
*A* 1.01

*Q* Please give the result for TACGTGTGGG too.
*A* 1.02

*Q* Please give the result for CGAGGTGGGA too.
*A* 0.997

*Q* Please give the result for TGACGAGTAA too.
*A* 1.5

*Q* Please give the result for CACAAAAATT too.
*A* 1.01

====

# System: ATP;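 note: ATP exposure 15 min at 22 °C before imaging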
# Protocol: switch fluorescence ratio, 500 uM ATP over buffer (Cy3 cluster intensity, sum of 5 cycles each) (fold (ratio)); higher = stronger signal-on switching upon ATP binding; sequences stand for … in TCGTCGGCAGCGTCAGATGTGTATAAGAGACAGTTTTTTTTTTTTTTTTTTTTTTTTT…TC
# Setup conditions: aptamer strand: ATP DNA aptamer (quencher-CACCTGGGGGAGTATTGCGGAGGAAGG + anchor), 100 nM annealed; ATP concentration: 500 uM
Metric: switch fluorescence ratio
Keep the answer to the number alone.

Before answering, review these 2 worked examples.
Biopolymer sequence	Test system	switch fluorescence ratio
CGGTACCGTT	ATP	1.02
ATATAGACGG	ATP	0.975

*Q* Return reported switch fluorescence ratio; argument: GATCGGGGGG
*A* 0.983

*Q* Please give the result for ACTGACGATG too.
*A* 1.31

====

# Tested on: ATP;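 note: ATP exposure 15 min at 22 °C before imaging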
# Protocol: switch fluorescence ratio, 500 uM ATP over buffer (Cy3 cluster intensity, sum of 5 cycles each) (fold (ratio)); higher = stronger signal-on switching upon ATP binding; sequences stand for … in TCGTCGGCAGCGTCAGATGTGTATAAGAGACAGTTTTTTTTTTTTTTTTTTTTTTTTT…TC
# Setup conditions: aptamer strand: ATP DNA aptamer (quencher-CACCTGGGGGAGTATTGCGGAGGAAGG + anchor), 100 nM annealed; ATP concentration: 500 uM
Metric: switch fluorescence ratio
Keep the answer to the number alone.

Before answering, review these 3 worked examples.
Biopolymer sequence	Test system	Metric	Observed result
ACGTAGAATG	ATP	switch fluorescence ratio	1.06
CGTGAACTCT	ATP	switch fluorescence ratio	0.999
AAGTTTTGGT	ATP	switch fluorescence ratio	0.964

*Q* Return reported switch fluorescence ratio; argument: TGATGCATGG
*A* 1.05

*Q* Please give the result for TGGTATAGTA too.
*A* 0.993

*Q* Please give the result for AGTATTCAGG too.
*A* 1

*Q* Please give the result for GAGGTATCAT too.
*A* 0.985

*Q* Please give the result for TTGTTAGTCA too.
*A* 1.03

*Q* Please give the result for AAGTTAGACA too.
*A* 1.02

*Q* Please give the result for TTTAGGTTCG too.
*A* 0.972

*Q* Please give the result for CTTTTAGTAG too.
*A* 0.974

*Q* Please give the result for CTGGGGCAGA too.
*A* 1.02

*Q* Please give the result for CCCGGGTCTG too.
*A* 1.04

*Q* Please give the result for AGTGGTGGGT too.
*A* 1.01
